molecular target: hMC4-R (Homo sapiens (Human), UniProt P32245); test: Competitive inhibition binding assay using [I125]-NDP-α-MSH, hMC4-R membranes; details: averaged; [I125]-NDP-α-MSH (values not marked *); read-out: MC4-R Ki
Sequence (P32245 whole entry): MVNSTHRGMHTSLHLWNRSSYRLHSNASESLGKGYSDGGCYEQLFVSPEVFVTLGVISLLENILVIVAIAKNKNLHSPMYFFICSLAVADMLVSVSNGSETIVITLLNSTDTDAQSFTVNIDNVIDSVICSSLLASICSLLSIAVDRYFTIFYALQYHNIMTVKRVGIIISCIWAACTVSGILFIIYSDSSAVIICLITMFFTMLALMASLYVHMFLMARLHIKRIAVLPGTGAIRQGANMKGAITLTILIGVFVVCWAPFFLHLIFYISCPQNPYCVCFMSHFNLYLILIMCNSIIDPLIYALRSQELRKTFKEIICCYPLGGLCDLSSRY
Measured Quantity: pKi
For clarity, pKi is expressed as the negative log10 of concentration in mol/L.

The cases that follow already have their pKi on record.
[
  {
    "Compound": "CC(=O)N[C@@H](CCCNC(=N)N)C(=O)N[C@H]1CC(=O)NCCCC[C@@H](C(=O)NC2CC2)NC(=O)[C@H](Cc2c[nH]c3ccccc23)NC(=O)[C@H](CCCNC(=N)N)NC(=O)[C@@H](Cc2ccccc2)NC(=O)[C@H](CCN)NC1=O [compound 122]",
    "Observed Measurement": 8.52
  },
  {
    "Compound": "CC(=O)N[C@@H](CCCNC(=N)N)C(=O)N[C@H]1CC(=O)NCCCC[C@@H](C(N)=O)NC(=O)[C@H](Cc2c[nH]c3ccccc23)NC(=O)[C@H](CCCNC(=N)N)NC(=O)[C@@H](Cc2ccccc2)NC(=O)[C@H](CO)NC1=O [compound 117]",
    "Observed Measurement": 5.84
  },
  {
    "Compound": "CC(=O)N[C@@H](CCCNC(=N)N)C(=O)N[C@H]1CC(=O)NCCCC[C@@H](C(N)=O)NC(=O)[C@H](Cc2c[nH]c3ccccc23)NC(=O)[C@H](CCCNC(=N)N)NC(=O)[C@@H](Cc2ccccc2)NC(=O)[C@H](CO)NC1=O [Peptide No. 3]",
    "Observed Measurement": 6.76
  }
]

Lab note: next compound to report on.
Answer briefly: pKi recorded on hMC4-R (Homo sapiens (Human), UniProt P32245) for CC(=O)N[C@@H](CCCNC(=N)N)C(=O)N[C@H]1CC(=O)NCCCC[C@@H](C(N)=O)NC(=O)[C@H](Cc2c[nH]c3ccccc23)NC(=O)[C@H](CCCNC(=N)N)NC(=O)[C@@H](Cc2ccccc2)NC(=O)[C@H](Cc2ccc(C(N)=O)cc2)NC1=O [compound 50]
7.52

---

Recorded Ki, one value per entry.
biological target: hMC4-R (Homo sapiens (Human)); test: Competitive binding assay using Eu-NDP-α-MSH (TRF), hMC4-R membranes; conditions: averaged; Eu-NDP-α-MSH (values marked *); read-out: MC4-R Ki
Peptide text beside a SMILES is read from it.
State the answer as a number, implicitly in nM.

[
  {
    "Compound": "CC(=O)N[C@@H](CCCNC(=N)N)C(=O)N[C@H]1CC(=O)NCCCC[C@@H](C(N)=O)NC(=O)[C@H](Cc2c[nH]c3ccccc23)NC(=O)[C@H](CCCNC(=N)N)NC(=O)[C@@H](Cc2ccccc2)NC(=O)[C@H](Cc2ccc(O)cc2)NC1=O [compound 11] (HELM PEPTIDE1{[ac].R.D.Y.[dF].R.W.K.[am]}$PEPTIDE1,PEPTIDE1,3:R3-8:R3$$$V2.0)",
    "Tgt": "hMC4-R (Homo sapiens (Human))",
    "Ki / nM": 43
  }
]

API: the following record is the query input.
// Input: CC[C@H](C)[C@@H]1NC(=O)[C@@H](NC(=O)[C@H](CCCNC(=N)N)NC(C)=O)CC(=O)NCCCC[C@@H](C(N)=O)NC(=O)[C@H](Cc2c[nH]c3ccccc23)NC(=O)[C@H](CCCNC(=N)N)NC(=O)[C@@H](Cc2ccccc2)NC1=O [compound 34] (HELM PEPTIDE1{[ac].R.D.I.[dF].R.W.K.[am]}$PEPTIDE1,PEPTIDE1,3:R3-8:R3$$$V2.0) . Output its Ki only.
19
